Test system: Escherichia coli TOP10
methodDescription: shrunken log2 fold change of peptide-encoding DNA abundance (4.5 h post-induction vs induction); higher = less antimicrobial activity (less host growth inhibition)
conditionsUsed: time post-induction: 4.5 h; library: site-saturation at positions 5, 18, 19, 20
assayMetric: shrunken log2 fold change
Give only the figure.

Worked cases, shrunken log2 fold change given:
sequenceChain: RRIRVRPPRLPRPRPRPGNWPRP
shrunken log2 fold change: 0.0971
--
sequenceChain: RRIRCRPPRLPRPRPRPIFFPRP
shrunken log2 fold change: -0.0793
--
sequenceChain: RRIRYRPPRLPRPRPRPHISPRP
shrunken log2 fold change: -0.317
--
sequenceChain: RRIRHRPPRLPRPRPRPIVAPRP
shrunken log2 fold change: 0.0238
--
sequenceChain: RRIRNRPPRLPRPRPRPYFTPRP
shrunken log2 fold change: -0.47
--
sequenceChain: RRIRHRPPRLPRPRPRPRMGPRP
shrunken log2 fold change: -0.00555

Next up:
Value of shrunken log2 fold change reported for the sequence RRIRSRPPRLPRPRPRPIICPRP is -0.258

* * *

shrunken log2 fold change for assorted sequences
Test system: Escherichia coli TOP10
methodDescription: shrunken log2 fold change of peptide-encoding DNA abundance (4.5 h post-induction vs induction); higher = less antimicrobial activity (less host growth inhibition)
conditionsUsed: time post-induction: 4.5 h; library: site-saturation at positions 5, 18, 19, 20
Give only the figure.

sequenceChain: RRIRERPPRLPRPRPRPSYVPRP
shrunken log2 fold change: -0.264

sequenceChain: RRIRVRPPRLPRPRPRPSLMPRP
shrunken log2 fold change: -0.368

sequenceChain: RRIRYRPPRLPRPRPRPMLRPRP
shrunken log2 fold change: -0.256

Value of shrunken log2 fold change reported for the sequence RRIRWRPPRLPRPRPRPINVPRP is -0.0356

Value of shrunken log2 fold change reported for the sequence RRIRERPPRLPRPRPRPVISPRP is -0.145

Value of shrunken log2 fold change reported for the sequence RRIRMRPPRLPRPRPRPAHCPRP is 0.352

Value of shrunken log2 fold change reported for the sequence RRIRARPPRLPRPRPRPERCPRP is 1.09

Value of shrunken log2 fold change reported for the sequence RRIRWRPPRLPRPRPRPLYLPRP is -0.5

Value of shrunken log2 fold change reported for the sequence RRIRARPPRLPRPRPRPLSVPRP is -0.0782

* * *

Tested on: Escherichia coli TOP10;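 also: peptides expressed intracellularly from a pBAD plasmid library in pooled LB shake-flask culture, induced with 0.3% L-arabinose, DNA abundance read by NGS, three biological replicates, DESeq2 with apeglm shrinkage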
methodDescription: shrunken log2 fold change of peptide-encoding DNA abundance (4.5 h post-induction vs induction); higher = less antimicrobial activity (less host growth inhibition)
conditionsUsed: time post-induction: 4.5 h; library: site-saturation at positions 5, 18, 19, 20
Class membership depends on shrunken log2 fold change alone; the intervals are lo = under -0.1, mid = from -0.1 up to 0.08, hi = 0.08 and over

Worked examples, 3 sequences total:
sequenceChain: RRIRQRPPRLPRPRPRPIFAPRP
groupLabel: hi
--
sequenceChain: RRIRFRPPRLPRPRPRPSAMPRP
groupLabel: mid
--
sequenceChain: RRIRSRPPRLPRPRPRPPMCPRP
groupLabel: mid

Q: Please indicate the class for RRIRSRPPRLPRPRPRPDKMPRP based on its shrunken log2 fold change.
Result: lo

Q: Please indicate the class for RRIRVRPPRLPRPRPRPIRHPRP based on its shrunken log2 fold change.
Result: lo

Q: Please indicate the class for RRIRIRPPRLPRPRPRPHSMPRP based on its shrunken log2 fold change.
Result: lo

Q: Please indicate the class for RRIRDRPPRLPRPRPRPQWNPRP based on its shrunken log2 fold change.
Result: lo

Q: Please indicate the class for RRIRKRPPRLPRPRPRPEPDPRP based on its shrunken log2 fold change.
Result: hi

Q: Please indicate the class for RRIRGRPPRLPRPRPRPYVQPRP based on its shrunken log2 fold change.
Result: lo

Q: Please indicate the class for RRIRERPPRLPRPRPRPLNIPRP based on its shrunken log2 fold change.
Result: lo

Q: Please indicate the class for RRIRVRPPRLPRPRPRPRSLPRP based on its shrunken log2 fold change.
Result: lo

Q: Please indicate the class for RRIRERPPRLPRPRPRPPMEPRP based on its shrunken log2 fold change.
Result: mid

Q: Please indicate the class for RRIRWRPPRLPRPRPRPFDAPRP based on its shrunken log2 fold change.
Result: mid

Q: Please indicate the class for RRIRHRPPRLPRPRPRPIWYPRP based on its shrunken log2 fold change.
Result: lo
